Each recorded value in this set is attributed to patent US9708318B2.

IC50 overview
- Experimental Target: FGFR4 (Homo sapiens (Human))
- Test Details: FGFR Enzymatic Assay (FRET peptide phosphorylation), FGFR4
- Format: biochemical
- Condition Notes: pre-incubated for 4 hours

- Molecule: "COc1cc(OC)c(F)c(N2Cc3cnc(-c4cn(C)nc4C)cc3N(Cc3cc(C(C)C)on3)C2=O)c1F"
  IC50: "30 to 200 nM"
- Molecule: "COc1cc(OC)c(F)c(N2Cc3cnc(-c4csc(N(C)C)n4)cc3C3(CC3)C2=O)c1F"
  IC50: "10 to 30 nM"
- Molecule: "COc1cc(OC)c(F)c(N2Cc3cnc(-c4cn(C)nc4C)cc3N(c3ccc(-n4cccn4)cc3)C2=O)c1F"
  IC50: "30 to 200 nM"
- Molecule: "COc1cc(OC)c(F)c(N2Cc3cnc(-c4cn(C)nc4C)cc3N(Cc3ccc(F)cc3)C2=O)c1F"
  IC50: "30 to 200 nM"
- Molecule: "COc1cc(OC)c(F)c(N2Cc3cnc(-c4cn(C)nc4C)cc3N(C3CCCC3)C2=O)c1F"
  IC50: "10 to 30 nM"
- Molecule: "CCN1C(=O)N(c2c(F)c(OC)cc(OC)c2F)Cc2cnc(-c3cccnc3)cc21"
  IC50: "< 10 nM"
- Molecule: "CCn1cnc(-c2cc3c(cn2)CN(c2c(F)c(OC)cc(OC)c2F)C(=O)C32CC2)c1"
  IC50: "10 to 30 nM"
- Molecule: "COc1cc(OC)c(F)c(N2Cc3cnc(-c4cccnc4)cc3C3(CC3)C2=O)c1F"
  IC50: "10 to 30 nM"

----------
- Experimental Target: FGFR4 (Homo sapiens (Human), UniProt P22455)
- Sequence (P22455 22-802): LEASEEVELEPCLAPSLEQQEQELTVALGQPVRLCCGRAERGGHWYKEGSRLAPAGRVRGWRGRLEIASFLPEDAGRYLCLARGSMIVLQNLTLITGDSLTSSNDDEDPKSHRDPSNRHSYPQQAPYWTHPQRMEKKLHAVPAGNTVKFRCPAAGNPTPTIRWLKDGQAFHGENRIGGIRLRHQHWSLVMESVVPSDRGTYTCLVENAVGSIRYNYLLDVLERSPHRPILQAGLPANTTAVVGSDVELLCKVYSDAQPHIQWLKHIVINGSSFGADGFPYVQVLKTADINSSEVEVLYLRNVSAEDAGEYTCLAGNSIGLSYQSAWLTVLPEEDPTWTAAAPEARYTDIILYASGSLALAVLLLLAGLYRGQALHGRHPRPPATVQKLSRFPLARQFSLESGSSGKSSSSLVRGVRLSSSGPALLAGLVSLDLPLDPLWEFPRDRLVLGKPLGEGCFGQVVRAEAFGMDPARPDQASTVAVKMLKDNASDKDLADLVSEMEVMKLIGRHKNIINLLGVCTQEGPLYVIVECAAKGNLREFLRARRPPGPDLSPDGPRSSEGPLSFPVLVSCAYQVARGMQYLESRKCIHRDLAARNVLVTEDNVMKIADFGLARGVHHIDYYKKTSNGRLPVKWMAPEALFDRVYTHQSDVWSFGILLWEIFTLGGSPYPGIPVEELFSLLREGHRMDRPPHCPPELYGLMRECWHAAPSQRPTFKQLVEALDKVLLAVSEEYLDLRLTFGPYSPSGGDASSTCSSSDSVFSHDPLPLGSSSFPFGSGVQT
- Test Details: FGFR Enzymatic Assay (FRET peptide phosphorylation), FGFR4
- Assay type: biochemical
- Condition Notes: FGFR4 selectivity; pre-incubated for 4 hours
Measurement Name: FGFR2/FGFR4 IC50 ratio

- Compound: "COc1cc(OC)c(F)c(N2Cc3cnc(-c4nn(CC5CCOCC5)cc4C#N)cc3C3(CC3)C2=O)c1F [Example 173]"
  Measured Value: ">100"
- Compound: "COc1cc(OC)c(F)c(N2Cc3cnc(-c4cncc(N5CCOCC5)c4)cc3C3(CC3)C2=O)c1F [Example 6]"
  Measured Value: ">100"
- Compound: "COc1cc(OC)c(F)c(N2Cc3cnc(-c4cncc(Cl)c4)cc3C3(CC3)C2=O)c1F [Example 11]"
  Measured Value: ">25"
- Compound: "COc1cc(OC)c(F)c(N2Cc3cnc(-c4cncc(S(=O)(=O)N5CCOCC5)c4)cc3C3(CC3)C2=O)c1F [Example 14]"
  Measured Value: ">10"
- Compound: "COc1cc(OC)c(F)c(N2Cc3cnc(-c4cncc(F)c4)cc3C3(CC3)C2=O)c1F [Example 5]"
  Measured Value: ">5"
- Compound: "COc1cc(OC)c(F)c(N2Cc3cnc(-c4nn(CC#N)cc4C#N)cc3C3(CC3)C2=O)c1F [Example 174]"
  Measured Value: ">10"
- Compound: "COc1cc(OC)c(F)c(N2Cc3cnc(-c4cc(N)ccc4C#N)cc3C3(CC3)C2=O)c1F [Example 3]"
  Measured Value: ">25"
- Compound: "COc1cc(OC)c(F)c(N2Cc3cnc(-c4cc(N)ccc4C)cc3C3(CC3)C2=O)c1F [Example 1]"
  Measured Value: ">25"
